All values here come from paper PMC3565011.

Test system: tamoxifen N-demethylation (N-desmethyl TAM formation) by human liver microsomes
Assay: in vitro
Settings: female, pH 7.4

- smi: "COc1ccc2c(c1OC)CN(C)CCc1cc3c(cc1C(=O)C2)OCO3"
  unit-symbol: "%"
  inhibition at 20 min, 10 µM: 16.8

====

Molecular target: CYP2D6 (Homo sapiens)
Sequence (P10635 whole entry): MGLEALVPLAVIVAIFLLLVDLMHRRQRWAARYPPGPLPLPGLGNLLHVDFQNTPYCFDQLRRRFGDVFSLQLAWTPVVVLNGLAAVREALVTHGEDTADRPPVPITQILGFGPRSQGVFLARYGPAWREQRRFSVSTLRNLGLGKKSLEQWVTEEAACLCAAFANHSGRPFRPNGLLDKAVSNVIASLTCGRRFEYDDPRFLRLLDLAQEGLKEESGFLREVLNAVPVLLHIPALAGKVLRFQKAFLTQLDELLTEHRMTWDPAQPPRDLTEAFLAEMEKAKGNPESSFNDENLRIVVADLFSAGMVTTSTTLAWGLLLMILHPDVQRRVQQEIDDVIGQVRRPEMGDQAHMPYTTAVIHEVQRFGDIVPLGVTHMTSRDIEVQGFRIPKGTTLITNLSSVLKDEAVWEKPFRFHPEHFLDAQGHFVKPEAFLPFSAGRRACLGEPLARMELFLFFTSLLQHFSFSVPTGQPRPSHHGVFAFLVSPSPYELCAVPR
measurement-label: Ki (nM)

- compound: "CN1CCc2cc3c(cc2C(=O)Cc2ccc4c(c2C1)OCO4)OCO3 [Protopine, protopine]"
  measured-on: "CYP2D6 (Homo sapiens)"
  measurement-label: "Ki"
  observed-result: 78

====

// reported IC50 for each item listed
Molecular target: CYP3A4 (Homo sapiens, UniProt P08684)
Sequence (P08684 whole entry): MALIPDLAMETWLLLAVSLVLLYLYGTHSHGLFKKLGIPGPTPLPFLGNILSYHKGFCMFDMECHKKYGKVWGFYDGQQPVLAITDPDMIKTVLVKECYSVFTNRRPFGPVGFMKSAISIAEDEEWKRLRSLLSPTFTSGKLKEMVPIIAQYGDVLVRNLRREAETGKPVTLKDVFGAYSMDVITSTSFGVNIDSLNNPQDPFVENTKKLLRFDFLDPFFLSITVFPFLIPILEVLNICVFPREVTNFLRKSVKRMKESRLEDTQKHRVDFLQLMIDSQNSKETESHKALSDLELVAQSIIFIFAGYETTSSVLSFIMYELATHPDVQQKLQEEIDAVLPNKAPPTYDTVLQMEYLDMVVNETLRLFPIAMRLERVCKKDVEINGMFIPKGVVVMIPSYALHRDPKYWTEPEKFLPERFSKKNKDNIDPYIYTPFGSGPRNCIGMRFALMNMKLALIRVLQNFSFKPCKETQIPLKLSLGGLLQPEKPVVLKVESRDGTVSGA
Experiment: Midazolam 1'-hydroxylation
Assay type: in vitro ADME
Details: read-out: IC50 CYP3A4; midazolam hydroxylation

- compound: "C=C(C)[C@@H]1O[C@@]23O[C@@H]1C[C@@H](C)[C@@H]2[C@@]1(C)[C@H](OC(C)=O)C[C@@]24C[C@@]25CC[C@H](O[C@@H]2OC[C@@H](O)[C@H](O)[C@H]2O)C(C)(C)[C@@H]5CC[C@H]4[C@]1(C)[C@H]3O [Compound 7, Cimiracemoside K]"
  unit-symbol: "µM"
  IC50: 3.8
- compound: "CC(=O)O[C@H]1CO[C@@H](O[C@H]2CC[C@]34C[C@]35CC[C@]3(C)[C@@H]([C@H](C)C[C@@H](OC(C)=O)[C@@H]6OC6(C)C)C(=O)[C@H](O)[C@@]3(C)[C@@H]5CC[C@H]4C2(C)C)[C@H](O)[C@H]1O [Compound 16, Cimiracemoside L]"
  unit-symbol: "µM"
  IC50: 2.4
- compound: "CC(=O)O[C@@H]1CO[C@@H](O[C@H]2CC[C@]34C[C@]35C[C@@H](OC(C)=O)[C@]3(C)[C@H]6[C@H](C)C[C@]7(OC(O)[C@]8(C)O[C@H]78)O[C@H]6C[C@@]3(C)[C@@H]5CC[C@H]4C2(C)C)[C@H](O)[C@H]1O (stereo partly drawn) [Compound 15, Cimiracemoside O]"
  unit-symbol: "µM"
  IC50: 5.1
